molecular target: ChDHFR-TS (Cryptosporidium hominis); assay: ChDHFR enzyme inhibition assay; format: biochemical; conditions: IC50 against ChDHFR
Sequence (Q27552 1-521): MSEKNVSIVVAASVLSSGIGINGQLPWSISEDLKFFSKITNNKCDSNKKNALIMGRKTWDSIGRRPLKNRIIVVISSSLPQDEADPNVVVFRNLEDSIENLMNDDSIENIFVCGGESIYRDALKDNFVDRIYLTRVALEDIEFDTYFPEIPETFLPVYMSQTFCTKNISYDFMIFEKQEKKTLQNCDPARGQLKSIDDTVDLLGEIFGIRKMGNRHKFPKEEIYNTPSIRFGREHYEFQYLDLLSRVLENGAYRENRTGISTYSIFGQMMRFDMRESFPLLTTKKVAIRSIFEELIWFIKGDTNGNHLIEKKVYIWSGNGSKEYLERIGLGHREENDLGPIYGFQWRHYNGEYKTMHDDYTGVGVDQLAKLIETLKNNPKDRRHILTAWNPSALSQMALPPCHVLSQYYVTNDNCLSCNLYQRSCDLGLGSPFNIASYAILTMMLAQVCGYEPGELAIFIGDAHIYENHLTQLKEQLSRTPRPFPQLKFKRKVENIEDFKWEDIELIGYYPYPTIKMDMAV
pIC50: −log10 of the molar value.
Task for the reader: assign each of the following molecules its reported pIC50.

Form field: reported pIC50 of COc1cc(CC#Cc2c(C)nc(N)nc2N)cc(OC)c1OC [Compound 5]
> 4.00

Look up pIC50 for this molecule: COc1cc([C@H](C)C#Cc2c(C)nc(N)nc2N)cc(OC)c1OC [138(S)]
> 4.00

So what's the measured pIC50 for this one? COc1cc([C@@H](C)C#Cc2c(C)nc(N)nc2N)cc(OC)c1OC (racemic) [Compound X]
> 4.00

What value of measured pIC50 is listed for COc1cc([C@@H](C)C#Cc2c(C)nc(N)nc2N)cc(OC)c1OC [137(R)] ?
> 4.00

Fill blank: measured pIC50 of the molecule CN(Cc1cnc2nc(N)nc(N)c2n1)c1ccc(C(=O)N[C@@H](CCC(=O)O)C(=O)O)cc1 [methotrexate, reference compound] is ____.
7.64

# query: pIC50 of entry COc1cc(CC#Cc2cnc(N)nc2N)cc(OC)c1OC [Compound 1]
> 4.00

====

Task for the reader: assign each of the following compounds its reported IC50.
Write down the numeric answer in nM and omit the unit.

Request: IC50, test system S. pyogenes DHFR (Streptococcus pyogenes, UniProt Q9A091), entry CCc1nc(N)nc(N)c1C#CCc1cccc(-c2cccnc2)c1
47

Field: IC50 (S. pyogenes DHFR (Streptococcus pyogenes, UniProt Q9A091)). Entry: CCc1nc(N)nc(N)c1C#CCc1cc(-c2ccccc2)ccc1OC
5.9

Item COc1cc(-c2ccc(C)cc2)cc([C@@H](C)C#Cc2c(C)nc(N)nc2N)c1 with S. pyogenes DHFR (Streptococcus pyogenes, UniProt Q9A091) - IC50?
350

Query for S. pyogenes DHFR (Streptococcus pyogenes, UniProt Q9A091): what IC50 does the record show for CCc1nc(N)nc(N)c1C#CCc1cccc(-c2cncnc2)c1 ?
23

Record lookup: for S. pyogenes DHFR (Streptococcus pyogenes, UniProt Q9A091), what IC50 belongs to COc1cc(C(C)C#Cc2c(C)nc(N)nc2N)cc(N2CCOCC2)c1 (centres unmarked) ?
26

====

target: S. aureus DHFR (Staphylococcus aureus)
pIC50: −log10 of the molar value.
Label FALSE if pIC50 falls below 8; label TRUE in every other case.

hey, is pIC50 for this one >= 8? CCc1nc(N)nc(N)c1C#CC(C)c1cc(OC)cc(-c2ccncc2)c1 (centres unmarked)
FALSE

Does the compound CCc1nc(N)nc(N)c1C#CCc1cc(-c2ccccc2)ccc1OC have recorded pIC50 that is 8 or more?
TRUE

State whether the measured pIC50 reaches 8, counting equality as reaching it, for COc1cc(C(C)C#Cc2c(C)nc(N)nc2N)cc(N2CCOCC2)c1 (centres unmarked)
FALSE

Would you say CCc1nc(N)nc(N)c1C#CCc1cccc(-c2ccncc2)c1 shows pIC50 at minimum 8?
FALSE

In plain terms: is recorded pIC50 at least 8 for CCc1nc(N)nc(N)c1C#CCc1cccc(-c2cccnc2)c1 ?
FALSE

====

For each entry below, report its IC50 value.
Target: hDHFR (Homo sapiens (Human))
Sequence (P00374 whole entry): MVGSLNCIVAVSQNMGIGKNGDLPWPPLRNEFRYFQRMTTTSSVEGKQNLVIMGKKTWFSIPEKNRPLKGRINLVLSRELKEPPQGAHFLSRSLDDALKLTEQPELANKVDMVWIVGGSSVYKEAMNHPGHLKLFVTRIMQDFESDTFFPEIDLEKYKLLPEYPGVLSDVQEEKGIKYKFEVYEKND
Test: hDHFR enzyme inhibition assay
Assay type: biochemical
Settings: Table 5; average of at least three measurements; read-out: IC50 human
Protocol: hDHFR: The gene for hDHFR was amplified using PCR from cDNA obtained from ATCC. The gene was inserted in a pET41 vector with a C-terminal histidine tag for affinity chromatography. The resulting construct was verified by sequencing. […] Enzyme and inhibitor were allowed to incubate for 5 min before adding dihydrofolate to initiate the reaction. […] IC50 values and their standard deviations were calculated in the presence of varying concentrations of inhibitor near the IC50 concentration. […]
Your answer is read as nM, so omit the unit and give the number.

GET /values?readout=IC50&item= CCc1nc(N)nc(N)c1C#CCc1cccc(-c2ccccc2)c1 [Compound 143]
290

Suppose we examine the molecule CCc1nc(N)nc(N)c1C#CCc1cccc(-c2cccnc2)c1 [Compound 154] ; what IC50 value has been reported?
290

Please look up its IC50: CCc1nc(N)nc(N)c1C#CCc1cc(-c2ccccc2)ccc1OC [Compound 142]
300

Need IC50, item CCc1nc(N)nc(N)c1C#CCc1cc(-c2ccncc2)ccc1OC [Compound 149]
330

Which value of IC50 has been reported for COc1cc(C(C)C#Cc2c(C)nc(N)nc2N)cc(N2CCOCC2)c1 (stereo not shown) [Compound 152] in the records?
400

Please look up its IC50: COc1ccc(-c2ccccc2)cc1C(C)C#Cc1c(C)nc(N)nc1N (stereo not shown) [Compound 145]
97

Name the recorded IC50 for COc1cc(-c2ccncc2)cc(C(C)C#Cc2c(C)nc(N)nc2N)c1 (stereo not shown) [Compound 147] .
1500

====

biological target: S. pyogenes DHFR (Streptococcus pyogenes, UniProt Q9A091)
Sequence (Q9A091 1-165): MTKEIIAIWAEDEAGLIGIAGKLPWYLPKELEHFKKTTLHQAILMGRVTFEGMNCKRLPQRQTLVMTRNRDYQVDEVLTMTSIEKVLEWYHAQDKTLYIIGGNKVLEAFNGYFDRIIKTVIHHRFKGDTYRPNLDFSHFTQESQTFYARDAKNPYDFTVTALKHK
measurement name: pIC50
# reply with the number alone; pIC50 is -log10 of concentration in mol/L

Query the reported pIC50 for S. pyogenes DHFR (Streptococcus pyogenes, UniProt Q9A091); item: CCc1nc(N)nc(N)c1C#CCc1cc(OC)cc(-c2ccncc2)c1
7.55

Quick check: pIC50 on S. pyogenes DHFR (Streptococcus pyogenes, UniProt Q9A091), item CCc1nc(N)nc(N)c1C#CCc1cccc(-c2ccncc2)c1 ?
7.52

Which pIC50 is reported with S. pyogenes DHFR (Streptococcus pyogenes, UniProt Q9A091) for this entry: CCc1nc(N)nc(N)c1C#CCc1cccc(-c2ccccc2)c1 ?
7.59

Query pIC50 on S. pyogenes DHFR (Streptococcus pyogenes, UniProt Q9A091) for COc1cc(-c2ccncc2)cc(C(C)C#Cc2c(C)nc(N)nc2N)c1 (stereo not drawn)
6.80

Hi! What's the reported pIC50 for CCc1nc(N)nc(N)c1C#CC(C)c1cc(-c2ccccc2)ccc1OC (stereo not drawn) on S. pyogenes DHFR (Streptococcus pyogenes, UniProt Q9A091)?
7.59

Any idea what pIC50 came out for CCc1nc(N)nc(N)c1C#CCc1cc(-c2ccncc2)ccc1OC on S. pyogenes DHFR (Streptococcus pyogenes, UniProt Q9A091)?
7.72
